Biological target: glucocerebrosidase (Gcase) (Homo sapiens, UniProt P04062)
Construct: micellar solution containing 10 nM GCase and 100 nM saposin C
Assay: Glucocerebrosidase (Gcase) activation assay, 4-methylumbelliferyl-beta-D-glucopyranoside substrate, fluorescence readout
Assay type: biochemical
Settings: test compound at 0.1 μM; read-out: Percent Gcase Activation, 0.1 μM Test Compound
Description: The ability of exemplary compounds to activate glucocerebrosidase (Gcase) was measured. A 484 μL aliquot of a 1.0 mg/mL solution of phosphatidylserine (PS) (Sigma P7769) in chloroform was evaporated under a stream of nitrogen for 1 hour. The lipid film was dissolved over 4 minutes of vigorous vortexing in 40 mL of 176 mM K2HPO4/50 mM citric acid (pH 4.7) containing 7.5 μL of triton X-100, resulting in a mixed micellar preparation with a composition of 0.32 mM triton and 0.37 mol % PS. […]
MEASURED_PROPERTY: activation at 0.1 µM

CCCCCO[C@H]1CC[C@H](NC(=O)c2ccn3c(C)cc(C)nc23)C1 :: > 20%
Cc1cc(C)n2ccc(C(=O)NC3CCOc4c(F)cccc43)c2n1 (stereo not drawn) :: > 20%
COc1cc(-c2cocn2)ccc1NC(=O)c1ccn2c(C)cc(C)nc12 :: > 20%

Suppose we examine the compound Cc1cc(C)n2ccc(C(=O)NC3CCCCC34CCCCO4)c2n1 (stereo not drawn) ; what activation at 0.1 µM value has been reported? 10 to 20%

What measured activation at 0.1 µM goes with Cc1cc(C)n2ccc(C(=O)NC3CCCc4cccnc43)c2n1 (stereo not drawn) ? < 10%

###

Listed here: items and their measured solubility.
Assay: Compound solubility in water
Settings: water, Compound Solubility in Water, in water
Report the figure in µg/mL without appending any unit label.

Worked set:
COCc1cc(C2CC2)nc2c(C(=O)NC3(C)CCOc4cc(F)c(F)cc43)ccn12 (centres unmarked) [III-266] :: 0.9
Cc1cc(C)n2ccc(C(=O)Nc3ccc(-c4ncco4)cc3)c2n1 [III-274] :: 0.06
COCc1cc(C2CC2)n2ccc(C(=O)NC3(C)CCOc4cc(F)c(F)cc43)c2n1 (centres unmarked) [III-270] :: 3

Entry Cc1cc(C)n2ccc(C(=O)NC3CCOc4ccc(F)cc43)c2n1 (centres unmarked) [III-225] has what solubility? 1.8

Which solubility value belongs to Cc1cc(C)n2ccc(C(=O)NC3CCCCc4ccccc43)c2n1 (centres unmarked) [III-226] ? 1.6

I'd like to know its solubility. The compound in question is Cc1cc(C)n2ccc(C(=O)Nc3ccc4c(c3)OCO4)c2n1 [III-280] 0.2

Which solubility value is on record for Cc1cc(C(F)(F)F)nc2c(C(=O)Nc3ccc(-c4cocn4)cc3)ccn12 [III-252] ? 1.8

Please look up its solubility: Cc1cc(C)n2ccc(C(=O)NC3CCCc4ccc(C#N)cc43)c2n1 (centres unmarked) [III-209] 2.3

###

Molecular target: glucocerebrosidase (Gcase) (Homo sapiens)
Construct: micellar solution containing 10 nM GCase and 100 nM saposin C
Assay: Glucocerebrosidase (Gcase) activation assay, 4-methylumbelliferyl-beta-D-glucopyranoside substrate, fluorescence readout
Assay type: biochemical
Conditions: test compound at 1.0 μM; read-out: Percent Gcase Activation, 1 μM Test Compound
MEASURED_PROPERTY: activation at 1 µM

Lookup: activation at 1 µM / glucocerebrosidase (Gcase) (Homo sapiens) / COCc1cc(C(C)C)n2ccc(C(=O)NC3(C)CCCc4ncncc43)c2n1 (centres unmarked) < 30%

###

Let's look at some molecules and their measured activation at 0.1 µM.
Target: glucocerebrosidase (Gcase) (Homo sapiens, UniProt P04062)
Construct: micellar solution containing 10 nM GCase and 100 nM saposin C
Assay: Glucocerebrosidase (Gcase) activation assay, 4-methylumbelliferyl-beta-D-glucopyranoside substrate, fluorescence readout
Assay type: biochemical
Conditions: test compound at 0.1 μM; read-out: Percent Gcase Activation, 0.1 μM Test Compound

These solved cases illustrate the format of a correct answer.
[2H]C1(NC(=O)c2ccn3c(C)cc(NC(C)=O)nc23)CCOc2ccccc21 (centres unmarked) :: < 10%
Cc1cc(C)n2ccc(C(=O)N[C@H]3CCCc4ccccc43)c2n1 :: > 20%
Cc1cc(C)n2ccc(C(=O)Nc3ccc(-c4ncco4)cc3)c2n1 :: > 20%

For the molecule shown here, Cc1cc(Cl)n2ccc(C(=O)Nc3ccc(-c4cocn4)cc3)c2n1 , give the reported activation at 0.1 µM. 10 to 20%

###

Test: Compound solubility in water
Settings: water, Compound Solubility in Water
MEASURED_PROPERTY: solubility (µg/mL)
Express your answer in µg/mL, writing the number without its unit.

Cc1cc(C)n2ccc(C(=O)N[C@@H](C)c3ccccc3)c2n1 :: 2
Cc1cc(C)n2ccc(C(=O)NC3CCC4(CCCO4)c4ccccc43)c2n1 (centres unmarked) :: 3.3
Cc1cc(C)n2ccc(C(=O)NC34CCC(CC3)c3ccccc34)c2n1 :: 0.3
Cc1cc(C)n2ccc(C(=O)N[C@H]3CC[C@H](OCC4CC(F)(F)C4)CC3)c2n1 :: 3.1

Look up solubility for this molecule: Cc1cc(C)n2ccc(C(=O)N[C@H]3CC[C@H](Oc4ncccn4)CC3)c2n1 2.4

###

Assay: Compound solubility in water
Conditions: water, Compound Solubility in Water
MEASURED_PROPERTY: solubility (µg/mL)
Report the value in µg/mL with no unit label.

Study these solved cases before continuing.
COCC#Cc1ccc(NC(=O)c2ccn3c(C)cc(C)nc23)cn1 [III-18] :: 0.7
Cc1cc(C)n2ccc(C(=O)Nc3ccc4c(c3)CCC4)c2n1 [III-148] :: 0.06
Cc1cc(C)n2ccc(C(=O)NC3CCOc4ccc(F)c(F)c43)c2n1 (centres unmarked) [III-172] :: 1.5
CCCCOC(=O)N1CC(NC(=O)c2ccn3c(C)cc(C)nc23)C1 [III-137] :: 15.5

Consider the molecule shown here: Cc1cc(C)n2ccc(C(=O)NC3CCOc4cccc(F)c43)c2n1 (centres unmarked) [III-195] What is its recorded solubility? 7

###

Experiment: Compound solubility in water
Settings: water
MEASURED_PROPERTY: Compound Solubility in Water

Cc1cc(C)n2ccc(C(=O)Nc3ccc(-c4ccco4)cc3)c2n1 [III-9] :: <0.1 µg/mL

Param item = Cc1cc(C)n2ccc(C(=O)Nc3ccc(C)c(-c4ncco4)c3)c2n1 [III-14] ; retrieve measured Compound Solubility in Water. <1.5 µg/mL

Give its Compound Solubility in Water value. Item: Cc1cc(C)n2ccc(C(=O)NC3CCC(c4cccs4)CC3)c2n1 (stereo not drawn) [III-188] 1.0 µg/mL

###

Target: glucocerebrosidase (Gcase) (Homo sapiens, UniProt P04062)
Construct: micellar solution containing 10 nM GCase and 100 nM saposin C
Sequence (P04062 40-536): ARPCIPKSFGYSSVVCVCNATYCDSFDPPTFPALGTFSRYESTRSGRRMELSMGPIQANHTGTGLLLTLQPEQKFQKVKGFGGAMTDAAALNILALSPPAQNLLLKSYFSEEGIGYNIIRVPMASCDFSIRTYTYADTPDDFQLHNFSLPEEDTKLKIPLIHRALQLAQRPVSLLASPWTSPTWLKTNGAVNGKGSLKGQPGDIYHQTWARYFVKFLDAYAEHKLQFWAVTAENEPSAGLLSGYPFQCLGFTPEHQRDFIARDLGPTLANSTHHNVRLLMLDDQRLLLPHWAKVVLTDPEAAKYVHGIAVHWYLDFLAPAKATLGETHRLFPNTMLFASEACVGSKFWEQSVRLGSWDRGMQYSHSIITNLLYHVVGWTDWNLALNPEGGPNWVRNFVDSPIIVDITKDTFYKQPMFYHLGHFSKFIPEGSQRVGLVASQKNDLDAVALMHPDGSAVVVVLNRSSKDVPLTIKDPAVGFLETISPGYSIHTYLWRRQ
Assay: Glucocerebrosidase (Gcase) activation assay, 4-methylumbelliferyl-beta-D-glucopyranoside substrate, fluorescence readout
Format: biochemical
Details: test compound at 0.1 μM; read-out: Percent Gcase Activation, 0.1 μM Test Compound
Overview of reported activation at 0.1 µM across a group of compounds:

Cc1cc(C)n2ccc(C(=O)NC3CCc4ccccc43)c2n1 (stereo not shown) [III-216] :: > 20%
CCCCO[C@H]1CC[C@H](NC(=O)c2ccn3c(C(F)F)cc(C)nc23)CC1 [III-68] :: > 20%
[2H]c1c(C([2H])([2H])[2H])nc2c(C(=O)NC(C)(C)c3ccc(F)cc3)cc([2H])n2c1C([2H])([2H])[2H] [III-160] :: > 20%

Field: next compound
Which measured activation at 0.1 µM value corresponds to CCCO[C@H]1CC[C@H](NC(=O)c2ccn3c(C)cc(C)nc23)CC1 [III-290] ? < 10%

###

Each entry below lists one item and its recorded activation at 1 µM value.
Target: glucocerebrosidase (Gcase) (Homo sapiens)
Construct: micellar solution containing 10 nM GCase and 100 nM saposin C
Test: Glucocerebrosidase (Gcase) activation assay, 4-methylumbelliferyl-beta-D-glucopyranoside substrate, fluorescence readout
Assay type: biochemical
Settings: test compound at 1.0 μM; read-out: Percent Gcase Activation, 1 μM Test Compound

Known activation at 1 µM results, listed for orientation:
CCCCO[C@H]1CC[C@H](NC(=O)c2ccn3c(C)cc(F)nc23)CC1 :: 30 to 60%
CCC(F)(F)CN1CCC(NC(=O)c2ccn3c(C)cc(C)nc23)CC1 :: < 30%
Cc1cc(O)n2ccc(C(=O)NC3CCCc4ccccc43)c2n1 (centres unmarked) :: < 30%

Which activation at 1 µM value belongs to COc1cc(C)nc2c(C(=O)Nc3ccc(-c4cocn4)cc3)ccn12 ? < 30%

Record request: activation at 1 µM value, item CCCOC[C@H]1CC[C@H](NC(=O)c2ccn3c(C)cc(C)nc23)CC1 > 60%

Name the reported activation at 1 µM value associated with the compound CCCCCO[C@H]1CC[C@H](NC(=O)c2ccn3c(C)cc(C)nc23)C1 > 60%

May I ask what activation at 1 µM has been recorded for CCCCO[C@H]1C[C@H](NC(=O)c2ccn3c(C)cc(C)nc23)C1 ? > 60%

I would be grateful if you could share the reported activation at 1 µM for C#Cc1ccc(C(C)(C)NC(=O)c2ccn3c(COC)cc(COC)nc23)cc1 . > 60%

Return reported activation at 1 µM; argument: Cc1cc(C)n2ccc(C(=O)NC3CCC(c4cccs4)CC3)c2n1 (centres unmarked) > 60%

# activation at 1 µM lookup, item Cc1cc(C)n2ccc(C(=O)Nc3cccc4c3CCC4)c2n1 > 60%

Sample Cc1cc(C)n2ccc(C(=O)Nc3ccc4c(c3)C(Oc3cccnc3)CC4)c2n1 (centres unmarked) — what was its activation at 1 µM? > 60%

Entry CCCCO[C@H]1CC[C@H](NC(=O)c2ccn3c(C)cc(NC)nc23)CC1 : reported activation at 1 µM = ? > 60%

Need activation at 1 µM, item Cc1cc(C)n2ccc(C(=O)Nc3ccc(-c4ccco4)cc3)c2n1 > 60%

Entry Cc1cc(C)n2ccc(C(=O)NC3Cc4ccc(-c5cscn5)cc4C3)c2n1 (centres unmarked) has what activation at 1 µM? > 60%

Reported activation at 1 µM for Cc1cc(C)n2ccc(C(=O)Nc3ccc(-c4cccs4)nc3)c2n1 : what is it? > 60%

Value lookup for activation at 1 µM; key = [2H]C1(NC(=O)c2ccn3c(C(C)C)cc(COC)nc23)CCOc2cc(F)c(F)cc21 (centres unmarked) 30 to 60%

GET /values?readout=activation at 1 µM&item= Cc1cc(C)n2ccc(C(=O)Nc3ccc4c(c3)CCC4)c2n1 > 60%

What does the data say about its activation at 1 µM? Entry: Cc1cc(C)n2ccc(C(=O)N[C@@H](C)c3ccccc3)c2n1 > 60%

Would you kindly share the measured activation at 1 µM for Cc1cc(C)n2ccc(C(=O)N[C@H]3CC[C@H](Oc4cccnc4)CC3)c2n1 ? < 30%

# get_value(readout='activation at 1 µM', item= [2H]C1(NC(=O)c2ccn3c(C)ccnc23)CCCc2ccccc21 (centres unmarked) ) > 60%

Recorded activation at 1 µM for Cc1cc(C)n2ccc(C(=O)NC(C)(C)c3ccccc3)c2n1 , please? > 60%

Give its activation at 1 µM value. Item: CCCCCN(C)C(=O)[C@H]1CC[C@H](NC(=O)c2ccn3c(C)cc(C)nc23)CC1 30 to 60%

So what's the measured activation at 1 µM for this one? Cc1cc(C)n2ccc(C(=O)NC3CCC4(CCCO4)C3)c2n1 (centres unmarked) < 30%

activation at 1 µM lookup needed for Cc1cc(C)n2ccc(C(=O)Nc3ccc4c(c3)C(Oc3cc(C)on3)CC4)c2n1 (centres unmarked) , thanks. > 60%

Would you mind telling me what activation at 1 µM value was observed for CCCCCO[C@@H]1CC[C@H](NC(=O)c2ccn3c(C)cc(C)nc23)C1 ? > 60%

If you can, please state the reported activation at 1 µM value of Cc1cc(C)n2ccc(C(=O)NC3CCC4OCOC4C3)c2n1 (centres unmarked) . < 30%

Dear colleague, I am looking for the recorded activation at 1 µM of the following compound: Cc1ccnc2c(C(=O)NC(C)(C)c3ccccc3)ccn12 30 to 60%
